tested on: ACVR1; settings: concentration: 1 μM, replicates: in singlicate; n = 1;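 also: KINOMEscan kinase panel screen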
measurement-type: %Inh (%)
Field: numeric (%). Do not append units.

Sample records with %Inh:
structure-smiles	result
Clc1cc(Nc2ncnc3cc[nH]c23)ccc1OCc1ccccn1	10
CC(C)N1CCC(n2cnc(-c3ccc(F)cc3)c2-c2ccnc(N)n2)CC1	0
Cn1ccc2ncnc(Oc3ccc(NC(=O)Nc4cccnc4)c(Cl)c3)c21	0
O=C(Nc1n[nH]c2nc(-c3ccco3)c(Br)cc12)c1ccc(CN2CCCC2)cc1.O=C(O)[C@H](O)[C@@H](O)C(=O)O	24
Fc1cccc(COc2ccc(Nc3ncnc4sc(-c5ccc[nH]5)cc34)cc2Cl)c1	9

IN: What value of %Inh has been recorded for this entry: Cl.c1ccc(Cn2ncc3cc(Nc4ncnc5ccccc45)ccc32)cc1
OUT: 5

IN: Given Cn1ccc2ncnc(Nc3ccc(Oc4cccc(Cl)c4)c(Cl)c3)c21 , state its recorded %Inh.
OUT: 0

IN: Can you share its %Inh? I mean this compound: CN1c2ccc(-c3ccc(C(=O)NCCO)cc3)cc2-c2[nH]ncc2S1(=O)=O
OUT: 22

IN: Entry under review: Fc1cccc(COc2ccc(Nc3ncnc4nn5ccccc5c34)cc2Cl)c1 . Reported %Inh?
OUT: 0

IN: Given the entry CN1CCC(n2cnc(-c3ccc(F)cc3)c2-c2ccnc(NC3CCNCC3)n2)CC1 , report its measured %Inh.
OUT: 0

IN: Requested read-out: %Inh. Entry: Fc1cccc(COc2ccc(Nc3ncnc4cc[nH]c34)cc2Cl)c1
OUT: 19

IN: Quick check: %Inh of COC(=O)c1cccc(NC(=O)NCCNc2ccnc(Nc3ccc(F)cc3)n2)c1 ?
OUT: 6

Recorded values, source paper PMC5540273.
